# Tested on: VDR:RXRa (NR concentration 270 nM, RXRa partner concentration 90 nM)
# test_description: PBM binding z-score (relative to random genomic background probes); higher = stronger binding; sequences stand for … in GC…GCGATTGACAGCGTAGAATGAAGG
assay_metric: PBM binding z-score

• CCGAGTAGGTTATGGGGCATTAAGGCAACGGTGA = 0.259
• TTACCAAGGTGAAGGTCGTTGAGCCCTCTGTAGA = 1
• CATACTGGGCCAAAGGTCATTGATTCCAATGCTC = 5.1
• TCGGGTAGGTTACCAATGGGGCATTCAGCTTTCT = 0.639
• AATACAGGGTCATAGTAGGCCAGAGTACGCACAG = 4.63
• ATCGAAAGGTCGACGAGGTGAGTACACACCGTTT = 5.59
• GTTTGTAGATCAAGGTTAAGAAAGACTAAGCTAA = 1.03
• CGTCAAAGTTCAAGGTAACGTACCAGAAAGCAGC = 3.87
• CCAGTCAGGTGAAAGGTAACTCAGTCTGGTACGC = 0.52
• GCAGACAGGTGAAACGCAGGTAACTCAAGGTGGC = -0.431
• TCTGCTAGGTCAACGATGGGCAGCTAATCTGCTA = 0.993
• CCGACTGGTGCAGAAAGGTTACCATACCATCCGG = 0.685
• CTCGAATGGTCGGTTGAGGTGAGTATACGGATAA = -0.211
• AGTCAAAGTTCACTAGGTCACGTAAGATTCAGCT = 5.1
• CCGACTGGGCCAAAAAGGTCATTGATGCCGATAA = 4.64
• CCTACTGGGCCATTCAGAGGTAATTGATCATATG = -0.36
• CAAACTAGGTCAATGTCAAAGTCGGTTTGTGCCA = 1.58
• TCTAGCAGGCCAGAGGTTCACTCAAGAGGTACGG = 0.704
• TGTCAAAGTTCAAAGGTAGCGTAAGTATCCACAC = 4.76
• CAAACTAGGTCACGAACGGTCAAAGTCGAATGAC = 4.04
• AGAATGAGGTTATCAAGATCAGGGAATTGCGGTC = 2.56
• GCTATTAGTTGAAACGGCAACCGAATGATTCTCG = -0.413
• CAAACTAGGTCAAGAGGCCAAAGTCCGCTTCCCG = 2.16
• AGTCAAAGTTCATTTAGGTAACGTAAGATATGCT = 4.97
• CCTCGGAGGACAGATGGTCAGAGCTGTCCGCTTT = -0.581
• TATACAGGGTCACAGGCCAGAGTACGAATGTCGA = 4.92
• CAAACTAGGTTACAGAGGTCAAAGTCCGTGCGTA = 7.06
• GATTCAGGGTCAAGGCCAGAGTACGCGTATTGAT = 4.89
• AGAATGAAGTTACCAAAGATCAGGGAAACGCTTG = -0.38
• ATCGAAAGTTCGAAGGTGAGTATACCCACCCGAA = 1.29
• TCTAGCAGGCCAGAGGGTAACTCAAGAGGTACGG = -0.204
• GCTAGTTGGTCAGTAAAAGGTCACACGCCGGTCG = 3.87
• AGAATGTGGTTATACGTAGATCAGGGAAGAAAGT = 0.0519
• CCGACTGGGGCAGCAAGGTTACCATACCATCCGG = 1.25
• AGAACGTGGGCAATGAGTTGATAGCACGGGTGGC = 0.69
• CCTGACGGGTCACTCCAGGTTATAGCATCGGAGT = 3.46
• CCAGAAAGGTGAGAAGGTAACTCAGCCTCGATTA = 0.43
• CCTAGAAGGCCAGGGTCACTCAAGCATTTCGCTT = 2.94
• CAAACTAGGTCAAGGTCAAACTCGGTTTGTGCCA = 5.49
• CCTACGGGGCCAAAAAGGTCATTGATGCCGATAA = 5.88
• GCTAGCAGGCCATTTGGGTCACTCGATGACGGGC = 0.762
• TCATATAGGTAAAAGGTGAAAGTGGGTGTGGTAA = 2
• TCACATAGGTAAATGCTAGGTGAAAGTCCGATCT = 0.334
• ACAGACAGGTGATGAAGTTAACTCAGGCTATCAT = 0.117
• ACTCGGAGGACAAAGGTCATAGCTACGCCAGTGA = 4.68
• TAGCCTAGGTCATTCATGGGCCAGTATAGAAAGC = 2.16
• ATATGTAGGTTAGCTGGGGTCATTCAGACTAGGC = 6.27
• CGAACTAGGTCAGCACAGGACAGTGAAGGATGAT = 0.981
• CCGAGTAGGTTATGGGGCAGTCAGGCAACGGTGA = -0.397
• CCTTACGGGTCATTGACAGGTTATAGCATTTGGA = 4.11
• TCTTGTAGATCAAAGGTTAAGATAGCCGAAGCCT = 1.49

// provenance: the supplement of paper PMC6555819
